- MEASURED ON: CDK4/CyclinD1 (Homo sapiens)
- Sequence (P11802 whole entry): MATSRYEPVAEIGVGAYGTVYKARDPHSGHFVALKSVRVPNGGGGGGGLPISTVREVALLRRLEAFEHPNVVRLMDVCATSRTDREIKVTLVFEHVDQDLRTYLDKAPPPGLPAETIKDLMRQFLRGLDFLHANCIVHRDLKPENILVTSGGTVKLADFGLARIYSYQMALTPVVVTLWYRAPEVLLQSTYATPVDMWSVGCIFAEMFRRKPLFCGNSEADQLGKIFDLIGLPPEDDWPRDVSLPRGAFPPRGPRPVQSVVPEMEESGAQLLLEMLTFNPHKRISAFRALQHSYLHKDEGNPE
- Sequence (P24385 whole entry partner): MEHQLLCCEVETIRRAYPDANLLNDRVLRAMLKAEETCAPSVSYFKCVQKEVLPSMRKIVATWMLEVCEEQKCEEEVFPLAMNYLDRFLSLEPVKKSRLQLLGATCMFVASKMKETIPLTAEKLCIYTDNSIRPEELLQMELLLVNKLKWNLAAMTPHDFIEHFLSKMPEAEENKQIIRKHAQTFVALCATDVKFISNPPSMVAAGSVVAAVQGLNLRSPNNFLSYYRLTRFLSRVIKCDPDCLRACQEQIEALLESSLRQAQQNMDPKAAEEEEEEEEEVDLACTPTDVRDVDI
- RUN DESCRIPTION: CDK4 kinase inhibitory activity assay (IC50)
- STATED CONDITIONS: read-out: IC50 against CDK4
REPORTED PROPERTY: IC50

Examples from the recorded data:
• CN(C)C1CCN(c2ccc(NC(=O)c3n[nH]cc3NC(=O)c3c(F)cccc3F)cc2)CC1 [Example 9] = < 100 nM
• O=C(Nc1ccc(N2CCNCC2)cn1)c1n[nH]cc1NC(=O)c1c(Cl)cccc1Cl [Example 7] = < 100 nM
• CN(C)C1CCN(c2ccc(NC(=O)c3n[nH]cc3NC(=O)c3c(F)cccc3F)nc2)CC1 [Example 8] = < 100 nM

INPUT: Any idea what IC50 was measured for O=C(Nc1nnc(CCN2CCCCC2)s1)c1n[nH]cc1NC(=O)c1c(F)cccc1F [Example 1] ?
OUTPUT: < 5000 nM

INPUT: Can you handle O=C(Nc1ccc(N2CCNCC2)cn1)c1n[nH]cc1NC(=O)c1c(F)cccc1F [Example 10] next?
OUTPUT: < 100 nM
